Measured values drawn from patent US11655268B2 for this set.

- System: CHIKV
- assay_comment: Cytopathic effect reduction, Chikungunya virus in Vero cells, MTT
- Assay type: cell-based
- setup_conditions: 72 h, read-out: EC50 CHIKV
result_type: pEC50
Note on units: pEC50 is unitless, being -log10 of a concentration expressed in mol/L.

# compound, reported_value
rows = [
    ("O=C(Nc1ccn(C2O[C@H](CO)[C@@H](O)[C@H]2F)c(=O)n1)c1ccc([N+](=O)[O-])cn1 (stereo in doubt)", 4.20),
    ("O=C(Nc1ccn(C2O[C@H](CO)[C@@H](O)[C@H]2F)c(=O)n1)c1cccnn1 (stereo in doubt)", 4.06),
    ("Cc1nccc(C(=O)Nc2ccn(C3O[C@H](CO)[C@@H](O)[C@H]3F)c(=O)n2)n1 (stereo in doubt)", 4.62),
    ("N#Cc1ccc(C(=O)Nc2ccn(C3O[C@H](CO)[C@@H](O)[C@H]3F)c(=O)n2)nc1 (stereo in doubt)", 4.29),
]

Okay, next one:
Problem: Report pEC50, nothing else, for this compound: O=C(Nc1ccn(C2O[C@H](CO)[C@@H](O)[C@H]2F)c(=O)n1)c1ccncn1 (stereo in doubt)
Result: 4.24

###

- Test system: hCoV (229E)
- assay_comment: microbe, parasite or virus in culture
- Type: cell-based, Human coronavirus hCoV 229E
- setup_conditions: MRC5, 72 h; MRC-5 cells, day 3 after infection; read-out: EC50 hCoV (229E)
Recorded EC50, one value per entry.
Number only, in µM; omit the unit.

Before answering, review these 5 worked examples.
# compound, target_of_assay, reported_value
records = [
    ("Cc1cccnc1C(=O)Nc1ccn([C@@H]2O[C@H](CO)[C@@H](O)C2(F)F)c(=O)n1", "hCoV (229E)", 12.2),
    ("Cc1ccc(C(=O)Nc2ccn([C@@H]3O[C@H](CO)[C@@H](O)C3(F)F)c(=O)n2)nc1", "hCoV (229E)", 7.4),
    ("Nc1ccn([C@@H]2O[C@H](CO)[C@@H](O)C2(F)F)c(=O)n1 [Gemcitabine, reference compound]", "hCoV (229E)", 0.44),
    ("Cc1cccc(C(=O)Nc2ccn([C@@H]3O[C@H](CO)[C@@H](O)C3(F)F)c(=O)n2)n1", "hCoV (229E)", 5.8),
    ("O=C(Nc1ccn([C@@H]2O[C@H](CO)[C@@H](O)C2(F)F)c(=O)n1)c1ccc(F)cn1", "hCoV (229E)", 2.4),
]

Okay, next one:
Problem: Report EC50, nothing else, for this compound: O=C1CCCN1c1ccn([C@@H]2O[C@H](CO)[C@@H](O)C2(F)F)c(=O)n1
Result: 17.6

###

- assay_comment: in vitro
- setup_conditions: dog
Structures can show the parent of a compound that is named as a salt.
result_type: CC50

# compound, CC50
rows = [
    ("Nc1ccn([C@@H]2O[C@H](CO)[C@@H](O)C2(F)F)c(=O)n1 [Gemcitabine, reference compound]", "241 µM"),
    ("NC12CC3CC(CC(C3)C1)C2 [AMT, amantadine hydrochloride, reference compound]", "> 100 µM"),
]

Okay, next one:
Problem: Report CC50, nothing else, for this compound: Cl.Nc1ccc(C(=O)Nc2ccn([C@@H]3O[C@H](CO)[C@@H](O)C3(F)F)c(=O)n2)nc1 [Example 20]
Result: > 100 µM

###

- assay_comment: Cytotoxicity (CC50) in Vero cells
- setup_conditions: African green monkey, CC50, Vero cells, ZIKV test
result_type: CC50 at 3 days

# compound, CC50 at 3 days
data = [
    ("O=C(Nc1ccn(C2O[C@H](CO)[C@@H](O)[C@H]2F)c(=O)n1)c1ccncn1 (stereo in doubt)", "> 100 µM"),
    ("Cc1nccc(C(=O)Nc2ccn(C3O[C@H](CO)[C@@H](O)[C@H]3F)c(=O)n2)n1 (stereo in doubt)", "> 100 µM"),
    ("O=C(Nc1ccn(C2O[C@H](CO)[C@@H](O)[C@H]2F)c(=O)n1)c1cccnn1 (stereo in doubt)", "> 100 µM"),
]

Problem: Report CC50 at 3 days, nothing else, for this compound: O=C(Nc1ccn(C2O[C@H](CO)[C@@H](O)[C@H]2F)c(=O)n1)c1ccc([N+](=O)[O-])cn1 (stereo in doubt)
Result: > 100 µM

Problem: Report CC50 at 3 days, nothing else, for this compound: N#Cc1ccc(C(=O)Nc2ccn(C3O[C@H](CO)[C@@H](O)[C@H]3F)c(=O)n2)nc1 (stereo in doubt)
Result: > 100 µM

Problem: Report CC50 at 3 days, nothing else, for this compound: Nc1ccc(C(=O)Nc2ccn(C3O[C@H](CO)[C@@H](O)[C@H]3F)c(=O)n2)nc1 (stereo in doubt)
Result: > 100 µM

Problem: Report CC50 at 3 days, nothing else, for this compound: O=C(Nc1ccn(C2O[C@H](CO)[C@@H](O)[C@H]2F)c(=O)n1)c1cccc(-c2ccccc2)n1 (stereo in doubt)
Result: > 100 µM

###

Recorded CC50 at 3 days, one value per entry.
- assay_comment: Cytotoxicity (CC50) in Vero cells
- setup_conditions: African green monkey, CC50 (DENV), Vero cells, DENV test

# compound, result_type, reported_value
rows = [
    ("O=C(Nc1ccn(C2O[C@H](CO)[C@@H](O)[C@H]2F)c(=O)n1)c1ccncn1 (stereo in doubt) [Example 36]", "CC50 at 3 days", "> 100 µM"),
    ("COc1ccc(C(=O)Nc2ccn([C@@H]3O[C@H](CO)[C@@H](O)C3(F)F)c(=O)n2)cn1 [Example 22]", "CC50 at 3 days", "< 1.2 µM"),
    ("O=C(Nc1ccn([C@@H]2O[C@H](CO)[C@@H](O)C2(F)F)c(=O)n1)c1cccc(-c2ccccc2)n1 [Example 17]", "CC50 at 3 days", "58.9 µM"),
    ("O=C(Nc1ccn([C@@H]2O[C@H](CO)[C@@H](O)C2(F)F)c(=O)n1)c1ccc(Cl)nc1 [Example 23]", "CC50 at 3 days", "< 1.2 µM"),
    ("Nc1ccc(C(=O)Nc2ccn(C3O[C@H](CO)[C@@H](O)[C@H]3F)c(=O)n2)nc1 (stereo in doubt) [Example 31]", "CC50 at 3 days", "> 100 µM"),
]

Okay, next one:
Problem: Report CC50 at 3 days, nothing else, for this compound: Cc1nccc(C(=O)Nc2ccn([C@@H]3O[C@H](CO)[C@@H](O)C3(F)F)c(=O)n2)n1 [Example 24]
Result: 55.4 µM

###

- System: FIPV
- assay_comment: Cytopathic effect reduction, FIPV in CRFK cells, MTT
- Type: cell-based, feline infectious peritonitis virus (FIPV)
- setup_conditions: Alphacoronavirus 1, 72 h; CRFK cells, day 3 after infection; read-out: EC50 FIPV
result_type: EC50 (µM)
Number only, in µM; omit the unit.

Before answering, review these 3 worked examples.
# compound, reported_value
data = [
    ("Cc1ccc(C(=O)Nc2ccn([C@@H]3O[C@H](CO)[C@@H](O)C3(F)F)c(=O)n2)nc1", 21),
    ("O=C(Nc1ccn([C@@H]2O[C@H](CO)[C@@H](O)C2(F)F)c(=O)n1)c1ccc(F)cn1", 18),
    ("Nc1ccn([C@@H]2O[C@H](CO)[C@@H](O)C2(F)F)c(=O)n1 [Gemcitabine, reference compound]", 21),
]

Problem: Report EC50, nothing else, for this compound: O=C1CCCN1c1ccn([C@@H]2O[C@H](CO)[C@@H](O)C2(F)F)c(=O)n1
Result: 77

###

- System: DENV
- assay_comment: Reduction in viral infection, dengue virus in Vero cells, immunofluorescence (4G2 antibody)
- Format: cell-based, Dengue virus New Guinea C (NGC)
- setup_conditions: 72 h, read-out: EC50 DENV
result_type: pEC50
Note on units: pEC50 is unitless, being -log10 of a concentration expressed in mol/L.

# compound, pEC50
records = [
    ("Cc1ccc(C(=O)Nc2ccn([C@@H]3O[C@H](CO)[C@@H](O)C3(F)F)c(=O)n2)cn1", 6.15),
]

Problem: Report pEC50, nothing else, for this compound: Cc1cccnc1C(=O)Nc1ccn([C@@H]2O[C@H](CO)[C@@H](O)C2(F)F)c(=O)n1
Result: 5.21

Problem: Report pEC50, nothing else, for this compound: Cc1ccc(C(=O)Nc2ccn([C@@H]3O[C@H](CO)[C@@H](O)C3(F)F)c(=O)n2)nc1
Result: 5.60

Problem: Report pEC50, nothing else, for this compound: O=C(Nc1ccn(C2O[C@H](CO)[C@@H](O)[C@H]2F)c(=O)n1)c1ccc([N+](=O)[O-])cn1 (stereo in doubt)
Result: 4.11

Problem: Report pEC50, nothing else, for this compound: O=C(Nc1ccn(C2O[C@H](CO)[C@@H](O)[C@H]2F)c(=O)n1)c1cccnc1 (stereo in doubt)
Result: 4.24

Problem: Report pEC50, nothing else, for this compound: O=C(Nc1ccn([C@@H]2O[C@H](CO)[C@@H](O)C2(F)F)c(=O)n1)c1ccc(F)cn1
Result: 5.87

Problem: Report pEC50, nothing else, for this compound: Cc1cccc(C(=O)Nc2ccn([C@@H]3O[C@H](CO)[C@@H](O)C3(F)F)c(=O)n2)n1
Result: 5.70

Problem: Report pEC50, nothing else, for this compound: O=C1CCCN1c1ccn([C@@H]2O[C@H](CO)[C@@H](O)C2(F)F)c(=O)n1
Result: 4.81

Problem: Report pEC50, nothing else, for this compound: COc1ccc(C(=O)Nc2ccn([C@@H]3O[C@H](CO)[C@@H](O)C3(F)F)c(=O)n2)nc1
Result: 5.89

Problem: Report pEC50, nothing else, for this compound: Cl.Nc1ccc(C(=O)Nc2ccn([C@@H]3O[C@H](CO)[C@@H](O)C3(F)F)c(=O)n2)nc1
Result: 5.80

Problem: Report pEC50, nothing else, for this compound: O=C(Nc1ccn([C@@H]2O[C@H](CO)[C@@H](O)C2(F)F)c(=O)n1)c1cccnc1
Result: 5.47

Problem: Report pEC50, nothing else, for this compound: O=C(Nc1ccn([C@@H]2O[C@H](CO)[C@@H](O)C2(F)F)c(=O)n1)c1cccnn1
Result: 6.03

Problem: Report pEC50, nothing else, for this compound: O=C(Nc1ccn(C2O[C@H](CO)[C@@H](O)[C@H]2F)c(=O)n1)c1cccc(-c2ccccc2)n1 (stereo in doubt)
Result: 4.86

Problem: Report pEC50, nothing else, for this compound: O=C(Nc1ccn([C@@H]2O[C@H](CO)[C@@H](O)C2(F)F)c(=O)n1)c1ccccn1
Result: 6.14
